Experimental Target: A3
Experiment Notes: ITC
Where no end group is shown, it is not given here. [ ]: non-standard residue; d: D form. pS = N[C@@H](COP(=O)(O)O)C(=O)O
Measured Quantity: Kd (nM)
Report the figure in nM without appending any unit label.

Per the records, this binder ( RPHFPQF[pS]YSAS [phosphorylated Akt peptide] ) has Kd equal to 31.8
